# target: Glut1 mRNA expression in differentiated 3T3-L1 adipocytes (Mus musculus, UniProt P16092+Q99N32)
# Sequence (P16092 22-822): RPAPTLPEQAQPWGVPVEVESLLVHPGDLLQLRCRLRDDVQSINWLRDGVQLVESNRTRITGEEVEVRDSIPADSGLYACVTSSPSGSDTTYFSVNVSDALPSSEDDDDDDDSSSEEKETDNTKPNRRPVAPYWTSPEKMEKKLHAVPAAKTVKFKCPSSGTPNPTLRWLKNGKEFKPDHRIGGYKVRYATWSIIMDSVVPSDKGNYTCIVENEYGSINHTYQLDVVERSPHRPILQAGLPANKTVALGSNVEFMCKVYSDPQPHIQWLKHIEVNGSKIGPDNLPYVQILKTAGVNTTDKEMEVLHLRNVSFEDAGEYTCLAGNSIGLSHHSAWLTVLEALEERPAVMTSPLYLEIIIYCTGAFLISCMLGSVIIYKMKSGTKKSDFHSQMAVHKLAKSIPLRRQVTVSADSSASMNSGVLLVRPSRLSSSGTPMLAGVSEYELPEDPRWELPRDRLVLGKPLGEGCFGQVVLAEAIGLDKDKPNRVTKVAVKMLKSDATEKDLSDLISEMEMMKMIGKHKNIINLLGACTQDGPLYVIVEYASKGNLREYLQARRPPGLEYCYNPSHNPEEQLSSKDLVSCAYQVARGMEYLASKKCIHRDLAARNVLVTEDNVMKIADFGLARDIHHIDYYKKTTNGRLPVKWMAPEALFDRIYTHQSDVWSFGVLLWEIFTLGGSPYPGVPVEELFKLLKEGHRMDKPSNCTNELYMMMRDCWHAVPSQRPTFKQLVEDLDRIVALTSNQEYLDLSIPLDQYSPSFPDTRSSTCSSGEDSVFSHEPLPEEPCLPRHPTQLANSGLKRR
# Sequence (Q99N32 whole entry): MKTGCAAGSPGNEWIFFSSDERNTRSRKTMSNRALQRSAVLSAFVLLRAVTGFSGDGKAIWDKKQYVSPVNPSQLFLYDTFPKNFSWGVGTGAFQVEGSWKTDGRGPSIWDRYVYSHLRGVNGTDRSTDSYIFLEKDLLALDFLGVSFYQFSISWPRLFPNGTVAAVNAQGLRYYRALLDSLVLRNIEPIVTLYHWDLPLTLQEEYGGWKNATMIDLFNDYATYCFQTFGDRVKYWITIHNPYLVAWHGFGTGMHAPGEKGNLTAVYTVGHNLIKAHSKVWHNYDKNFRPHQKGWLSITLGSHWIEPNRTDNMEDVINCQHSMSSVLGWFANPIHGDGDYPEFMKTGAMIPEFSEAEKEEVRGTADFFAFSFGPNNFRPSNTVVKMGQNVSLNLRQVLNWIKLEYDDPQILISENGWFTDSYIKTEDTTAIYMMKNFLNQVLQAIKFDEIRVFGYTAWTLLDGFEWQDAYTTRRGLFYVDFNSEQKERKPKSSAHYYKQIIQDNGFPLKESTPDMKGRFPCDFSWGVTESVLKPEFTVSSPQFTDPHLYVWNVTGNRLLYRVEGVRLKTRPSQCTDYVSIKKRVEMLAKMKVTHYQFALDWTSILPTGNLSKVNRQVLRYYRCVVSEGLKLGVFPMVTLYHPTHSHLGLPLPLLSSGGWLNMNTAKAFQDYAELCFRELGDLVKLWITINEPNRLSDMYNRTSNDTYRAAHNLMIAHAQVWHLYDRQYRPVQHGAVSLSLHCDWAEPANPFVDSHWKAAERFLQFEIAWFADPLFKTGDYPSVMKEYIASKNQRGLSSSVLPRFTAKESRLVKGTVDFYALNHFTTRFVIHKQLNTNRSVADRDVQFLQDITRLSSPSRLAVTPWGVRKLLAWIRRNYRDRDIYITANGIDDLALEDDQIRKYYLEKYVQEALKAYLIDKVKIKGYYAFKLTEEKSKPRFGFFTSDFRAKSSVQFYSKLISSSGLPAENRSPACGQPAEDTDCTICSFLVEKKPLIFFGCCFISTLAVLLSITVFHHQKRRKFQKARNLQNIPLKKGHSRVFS
# protocolNotes: Glut1 Taqman assay
# Format: cell-based
# protocolConditions: differentiated 3T3-L1 adipocytes, 6 hrs; protein or antibody conjugate as labelled; read-out: Glut1 Taqman assay EC50
measuredProperty: EC50 (nM)
Just the number in nM, nothing appended.

Below, 2 molecules whose answers are already recorded.
1) Ab-L5-FGF21ΔH-K59: SEQ ID NO:19 combined with L5 at K59 and conjugated with h38C2 (conjugate, listed as Homo sapiens, L5 linker at K59 conjugated to h38C2 antibody) PIPDSSPLLQFGGQVRQRYLYTDDAQQTEAHLEIREDGTVGGAADQSPESLLQLRALKPGVIQILGVRTSRFLCQRPDGALYGSLHFDPEACSFRELLLEDGYNVYQSEAHGLPLHLPGNRSPHRDPAPRGPARFLPLPGLPPALPEPPGILAPQPPDVGSSDPLSMVGPSQGRSPSYAS
6.5
2) FGF21ΔH-H125C: FGF21 cysteine mutant, SEQ ID NO:7 (protein, listed as Homo sapiens) PIPDSSPLLQFGGQVRQRYLYTDDAQQTEAHLEIREDGTVGGAADQSPESLLQLKALKPGVIQILGVKTSRFLCQRPDGALYGSLHFDPEACSFRELLLEDGYNVYQSEAHGLPLHLPGNKSPCRDPAPRGPARFLPLPGLPPALPEPPGILAPQPPDVGSSDPLSMVGPSQGRSPSYAS
1.2

Next molecule, EC50 to be filled in.
Ask: For the molecule FGF21ΔH-A129C: FGF21 cysteine mutant, SEQ ID NO:10 (protein, listed as Homo sapiens) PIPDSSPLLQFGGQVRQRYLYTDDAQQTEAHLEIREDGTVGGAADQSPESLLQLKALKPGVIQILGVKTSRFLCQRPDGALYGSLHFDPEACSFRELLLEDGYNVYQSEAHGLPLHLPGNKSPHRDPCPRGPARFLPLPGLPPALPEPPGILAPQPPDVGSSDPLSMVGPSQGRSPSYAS , what EC50 is on record?
Result: 1.4
